system: A549/ATCC NSCLC; experiment: NCI-60 one-dose screen, 48 h (100 = growth as untreated, 0 = no growth, -100 = all killed); conditions: 10 µM unless noted
About 83,000 compounds went through this panel and 20% of them were active in at least one assay; those are over-represented in the sample as a whole.
measured endpoint: growth (%)

>>> df
                                        smi  result_units  test_value
0  COc1cc2c(cc1OC)-c1ccc3cc4c(cc3c1N(CCCN(C)C)C2)OCO4             %        20.2
1  CC(C)OCCCNCC(=O)Nc1ccc(S(=O)(=O)c2ccc(NC(=O)CNCCCOC(C)C)cc2)cc1             %         106
2  C=C1C(=O)O[C@H]2[C@H]1CC/C(COC(=O)/C=C/C(=O)NCc1ccc(Cn3c(=O)sn(-c4ccccc4)c3=O)cc1)=C\CC[C@@]1(C)O[C@@H]21             %        80.2
3         Cc1cc(-c2ccccc2)cc(SC#N)[n+]1[O-]             %        33.7

* * *

system: HOP-62 NSCLC; experiment: NCI-60 one-dose screen, 48 h (100 = growth as untreated, 0 = no growth, -100 = all killed); conditions: 10 µM unless noted
The panel holds about 83,000 compounds, 20% with a hit somewhere; the sample as a whole holds those more often. Activity calls are given as the source filed them. The calls were made as follows: active = growth percent below 10; inactive = the rest.
measured endpoint: growth

                                   compound  measured_endpoint                test_value
0                      Cn1nnnc1-c1ccc(N)cc1             growth          95.9% (inactive)
1  COc1ccc(Cn2cnc3cc(C(=O)Nc4cccc5ccccc45)ccc32)c(OC)c1             growth  41.6% [30 µM] (inactive)
2  CCOC(=O)c1sc(-c2ccc(OS(=O)(=O)c3ccc(C(C)(C)C)cc3)c(C=O)c2)nc1C             growth            52% (inactive)
3  COc1cc(NC(=O)c2cccc(-c3cc(=O)c4c(O)c(OC)c(OC)cc4o3)c2)cc(OC)c1OC             growth          11.7% (inactive)
4  COc1cc(C2CC(c3ccc(Nc4nc(Nc5ccc(F)cc5)nc(Nc5ccc(Cl)cc5)n4)cc3)=NN2C(C)=O)cc(OC)c1OC (centres undefined)             growth          72.3% (inactive)
5  CCOC(=O)c1nnn(C(Cc2ccccc2Cl)C(=O)OCC)c1C (centres undefined)             growth          93.4% (inactive)
6  COc1ccc(-c2cc(-c3ccc(Nc4nc(Nc5ccccc5)nc(Nc5ccc(Cl)cc5)n4)cc3)nc(N)n2)cc1             growth          57.2% (inactive)
7  COc1ccc(NC(=O)C(=O)c2c[nH]c3ccc(F)cc23)cc1             growth           103% (inactive)
8  CC(/C=N/NC(=O)c1cc(-c2ccco2)[nH]n1)=C\c1ccccc1             growth          95.4% (inactive)

* * *

Consider the following compounds and their measured growth readings.
system: KM12 colon; experiment: NCI-60 one-dose screen, 48 h (100 = growth as untreated, 0 = no growth, -100 = all killed); conditions: 10 µM unless noted
Compounds without any hit were thinned out: in the full panel of roughly 83,000, 20% have a hit.
measured endpoint: growth (%)

>>> df
                                   compound  measured_endpoint  test_value
0    CCOC(=O)c1nnn(-c2ccccc2)c1C1=CN(C)CCC1             growth        99.9
1  O=c1cc(-c2ccc(OCc3ccccc3)cc2)oc2c(I)c(OCc3ccccc3)cc(OCc3ccccc3)c12             growth        91.8
2      CCCNCC(=O)Nc1ccc(C(=O)OC(C)(C)CC)cc1             growth         104
3  O=C(Nc1cccc2[nH]c(C(F)(F)F)nc12)c1cc(Cl)ccc1Cl             growth          20
4  O=C1C2=C(CCN(Cc3ccccc3)C2)N2CCN=C2N1Cc1ccc(C(F)(F)F)cc1             growth        39.4
5  Nc1c(-c2nc3ccccc3c(=O)[nH]2)nnn1-c1ccc(Cl)cc1             growth        82.8
6  CN1C[C@@H](c2ccc(Cl)cc2)[C@]2(NC(=S)N(c3ccc(F)c(Cl)c3)C2=O)[C@@]12C(=O)NC1C=CC(Cl)=C[C@H]12 (some centres undefined)             growth          55
7  Clc1ccc2c(NCCCN3CCN(c4nc(-n5ccnc5)nc5ccccc45)CC3)ccnc2c1             growth        87.8
8  Cc1nc(Nc2cccc(NC(=O)Nc3ccc(Cl)cc3)c2)c2ccccc2n1             growth        69.7
